pIC50: −log10 of the molar value.
Consider the following pIC50 values measured on MAGL (Mus musculus (Mouse)).
Sequence (O35678 whole entry): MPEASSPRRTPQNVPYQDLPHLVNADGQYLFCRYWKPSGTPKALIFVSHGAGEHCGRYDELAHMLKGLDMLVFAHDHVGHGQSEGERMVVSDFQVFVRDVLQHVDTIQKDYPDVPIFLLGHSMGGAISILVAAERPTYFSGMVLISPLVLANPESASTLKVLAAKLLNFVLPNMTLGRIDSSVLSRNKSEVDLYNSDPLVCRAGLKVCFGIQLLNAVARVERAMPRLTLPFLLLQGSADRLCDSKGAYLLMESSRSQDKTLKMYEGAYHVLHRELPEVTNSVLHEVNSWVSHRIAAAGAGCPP

Task item: Enter reported pIC50 observed with MAGL (Mus musculus (Mouse)) for CS(=O)(=O)Nc1cnn(C(=O)N2CC3CN(Cc4ccccc4Cl)CC3C2)c1 (stereo not shown)
Reply: 5.00 to 6.00

Task item: Missing value: pIC50, MAGL (Mus musculus (Mouse)), entry `Cc1cc(-c2ccccc2)ccc1CN1CCN(C(=O)n2cc(NS(C)(=O)=O)cn2)CC1` . Fill in?
Reply: 5.00 to 6.00

Task item: Which pIC50 is reported with MAGL (Mus musculus (Mouse)) for this entry: CC(=O)N(C)c1cnn(C(=O)N2CC3CN(Cc4ccccc4C(F)(F)F)CC3C2)c1 (stereo not shown) ?
Reply: ≥ 7.00

Task item: Can you look up pIC50 on MAGL (Mus musculus (Mouse)) for `CC(=O)N(C)c1cnn(C(=O)N2C[C@H]3C[C@H](N(C)Cc4ccccc4Cl)C[C@H]3C2)c1` ?
Reply: ≥ 7.00

Task item: Item CC(=O)N(C)c1cnn(C(=O)N2CC3CN(Cc4cc(C)cc(C)c4)CC3C2)c1 (stereo not shown) with MAGL (Mus musculus (Mouse)) - pIC50?
Reply: 6.00 to 7.00

Task item: Could you share what pIC50 was measured for CC(=O)N(C)c1cnn(C(=O)N2CC3CN(Cc4ccc(C(F)(F)F)cc4)CC3C2)c1 (stereo not shown) , tested on MAGL (Mus musculus (Mouse))?
Reply: ≥ 7.00

Task item: Request - read-out pIC50 | tested on MAGL (Mus musculus (Mouse)) | compound `CC(=O)N(C)c1cnn(C(=O)N2CCN(Cc3ccccc3Cl)CC2)c1`
Reply: 6.00 to 7.00

Task item: Quick check: pIC50 on MAGL (Mus musculus (Mouse)), item `CC(=O)N(C)c1cnn(C(=O)N2C[C@H]3C[C@H](NCc4ccccc4Cl)C[C@H]3C2)c1` ?
Reply: 6.00 to 7.00

Task item: Notebook: pull reported pIC50 for MAGL (Mus musculus (Mouse)), entry `CC(=O)N(C)c1cnn(C(=O)N2CCC3(CC2)CN(Cc2ccc(C(F)(F)F)cc2)C3)c1`
Reply: ≥ 7.00

Task item: Please provide the recorded pIC50 for `CC(=O)N(C)c1cnn(C(=O)N2CCC3(CC2)CN(Cc2cccc(C(F)(F)F)c2)C3)c1` , tested on MAGL (Mus musculus (Mouse)).
Reply: ≥ 7.00

Task item: API: value(readout= pIC50, system= MAGL (Mus musculus (Mouse)), query= `CC(=O)N(C)c1cnn(C(=O)N2CCC3(CC2)CN(Cc2cccc(Oc4ccccc4)c2)C3)c1` )
Reply: ≥ 7.00

Task item: Checklist item: pIC50 tested on MAGL (Mus musculus (Mouse)), entry CC(=O)N(C)c1cnn(C(=O)N2CC3CN(Cc4cccc(Oc5ccccc5)c4)CC3C2)c1 (stereo not shown) , value?
Reply: ≥ 7.00

Task item: Please state recorded pIC50 (tested on MAGL (Mus musculus (Mouse))) of `CC(=O)N(C)c1cnn(C(=O)N2CCN(Cc3cccc(Cl)c3)CC2)c1`
Reply: 6.00 to 7.00

Task item: Find pIC50 (MAGL (Mus musculus (Mouse))) for the entry CC(=O)N(C)c1cnn(C(=O)N2CCC3(CCN(Cc4ccccc4C(F)(F)F)C3)C2)c1 (stereo not shown)
Reply: 6.00 to 7.00

Task item: Requested read-out pIC50, target or system MAGL (Mus musculus (Mouse)), entry `CC(=O)N(C)c1cnn(C(=O)N2CCN(Cc3ccc(N4CCOCC4)cc3Cl)CC2)c1`
Reply: ≥ 7.00

Task item: What is its pIC50 for MAGL (Mus musculus (Mouse))? Entry: CC(=O)N(C)c1cnn(C(=O)N2CC3CN(Cc4ccccc4Cl)CC3C2)c1 (stereo not shown)
Reply: 6.00 to 7.00
